test system: Fibroblast; assay: Multiplex assay against human fibroblast; format: toxicity, cell-based; settings: 24 h, 10 µM, compound concentration 10 uM, replicate 2
Measured Metric: Population Hoechst High Intensity Objects (%)
Just the number in %, nothing appended.

Worked cases, answers included:
{"Molecule": "O=C(Cc1ccc(-c2ccc(OCCN3CCOCC3)cc2)cn1)NCc1ccccc1", "Experimental Value": 10}
{"Molecule": "C=C1/C(=C\\C=C2/CCC[C@]3(C)[C@@H]([C@H](C)/C=C/[C@H](C)C(C)C)CC[C@@H]23)C[C@@H](O)C[C@@H]1O", "Experimental Value": 3}
{"Molecule": "CCN1CCN(c2ccc(Nc3cc(N(C)C(=O)Nc4c(Cl)c(OC)cc(OC)c4Cl)ncn3)cc2)CC1", "Experimental Value": 34}
{"Molecule": "COc1cccc2cc(-c3nc([C@H]4CC[C@H](C(=O)O)CC4)n4ncnc(N)c34)[nH]c12", "Experimental Value": 33}
{"Molecule": "O=C(Nc1ccc(-c2ccnc(Nc3ccc(N4CCOCC4)cc3)n2)cc1)[C@@H]1CCCN1", "Experimental Value": 1}

Reported Population Hoechst High Intensity Objects (%) of Cn1nc(C(F)(F)F)cc1-c1cnc(N2CCc3cc(S(=O)(=O)Nc4c(F)cc(Cl)cc4F)cc(N4CCCC4=O)c32)nc1 : 38

Reported Population Hoechst High Intensity Objects (%) of COc1ccc(-c2ccc3c(N4CCOCC4)nc(N4C[C@@H](C)O[C@@H](C)C4)nc3n2)cc1CO : 70

Reported Population Hoechst High Intensity Objects (%) of Cc1ccc(C(=O)Nc2cccc(C(F)(F)F)c2)cc1Nc1nc(-c2cccnc2)nc2c1cnn2C : 20

Reported Population Hoechst High Intensity Objects (%) of CCc1cccc(CC)c1NC(=O)c1nn(C)c2c1CCc1cnc(Nc3ccc(C(=O)NC4CCN(C)CC4)cc3OC(F)(F)F)nc1-2 : 2
